Measured pKd of individual entries
Molecular target: T1, RBD derived from SARS-CoV-2 (Wuhan strain) (SARS-CoV-2 (Wuhan strain), UniProt P0DTC2 319-541)
T1 construct: domain: RBD
Test: BLI (Octet), RBD of the Wuhan strain
pKd: −log10 of the molar value.
reported property: pKd

Ab354 (antibody, V domains shown) VH: QVQLVQSGAEVKKPGASVTVSCKASGFLFTGYYMHWVRQAPGQGLEWMGWINPNSGASNYTRKFQGRVTMTRDTSISATYMKLSRLTSDDTAVYYCARDLAFSMVRGALDYWGQGTLVTVSS VL: QLVLTQPPSASGSPGQSVTISCTGTSSDVGGYNYVSWYQHHPGKAPKLMIYEVSKRPSGVPDRFSGSKSGNTASLTVSGLQAEDEADYYCNSYAGNNNWVFGTGTKVTVL; 10.14
Ab864 (antibody, V domains shown) VH: EVQLVESGGGLVQPGRSLRLSCAASGFTFDDYAMHWVRQVPGKGLEWVSGISWNKGNIDYADSVKGRFTISRDNAKNSLYLQMNSLRPEDTGLYYCAKDCHYDSPGYFPNCLHSWGQGTLVTVSS VL: EIVMTQSPSSLSASVGDRVTITCRASQGINTYLAWYQQKPGKAPKLLIYTASTLQSGVPSRFSGSGSGTDFTLTISSLQPEDFATYYCQQVHSYPLTFGGGTKVEIK; 8.41
Ab445 (antibody, V domains shown) VH: EVQLVESGGGVVQPGTSPRLSCAASGFTFSNSGMHWVRQAPGKGLEWVAVIWYDGSKKYYVDSVKGRFTISRDNSKNTLYLQMNSLRAEDTAVYYCARDGTVAVRGVMNPFFDYWGQGTLVTVSS VL: DIQLTQSPSSLSASVGDRVTITCQASQDISNYLNWYQQIPGKAPKLLIYDASNLETGVPSRFSGSGSGTDFTFTISSLQPEDIATYYCQQYDNLPYTFGQGTKLEIK; 10.23
Ab326 (antibody, V domains shown) VH: EVQLVESGGGVVQPGRSLRLSCAASGFTFSHYPMHWVRQAPGRGLEWVAVISYDGSNQHYVDSVKGRFTISRDNSKNTLYLQMNSLRAEDTAVYFCASLITMIRGVPDYWGQGTLVTVSS VL: DIQMTQSPSSLSASVGDRVTITCRASQSISNYLNWYQQKPGKAPNLLIFAASSLQSGVPSRFSGSGSGTEFTLTISSLQPEDFAAYYCLQTYSTPRTFGQGTRLEIK; 10.29
Ab336 (antibody, V domains shown) VH: QVQLQQSGPGLVKPSETLSLTCTVSGGSISSYYWTWIRQPPGKGLEWIAYISYSGSTNYNPSLRSRVTISVDTSKNQFSLKLSSVTAADTAVYYCARDYYYDNSGYPDSYYGMDVWGQGTTVTVSS VL: DIQLTQSPSTLSASVGDRVTITCRASQRISSWLAWYQQKPGKAPKLLIYKASTLQSGVPSRFSGSGSGTEFTLTISSLQPDDFATYYCQQYNSFSWTFGQGTKVEIK; 8.63
Ab369 (antibody, V domains shown) VH: QVQLVQSGAEVKKPGASVKVSCKASGYTLTNRAIHWVRQAPGQRLEWMGWINAGKGNTKYSQKFQGRVTITRDTSASTAYMELSSLKSEDTAFYYCATGDGYNYGYDSWGQGTLVTVSS VL: NFMLTQPPSVSVAPGKTARISCGGTNIGSKSVHWYQQKPGQAPVLVVHDDSDRPSGIPERFSASNSGNTATLTISRVEAGDEADYYCQVWDSTSDLPEVVFGGGTKLTVL; 9.71
